# CONDITION DESCRIPTION: cell viability/%
Where a SMILES comes first, the peptide text is derived from it. [ ]: non-standard residue; d: D form. The star is where a group is joined. NHCH2CH2OH = OCCN*; For = O=C*
PROPERTY NAME: viability (%)
Numbers only here, please. The scale is %.

In: Fill blank: measured viability of the molecule CNC(=O)C[C@@H](NC(=O)[C@@H](NC(=O)[C@H](NC(=O)[C@H](C)NC(=O)[C@@H](CC(C)C)NC(=O)[C@H](C)NC(=O)CNC(=O)[C@@H](NC=O)C(C)C)C(C)C)C(C)C)C(=O)N[C@@H](Cc1c[nH]c2ccccc12)C(=O)N[C@H](CC(C)C)C(=O)N[C@@H](Cc1c[nH]c2ccccc12)C(=O)N[C@@H](C(=O)N[C@@H](Cc1c[nH]c2ccccc12)C(=O)N[C@@H](C(=O)N[C@@H](Cc1c[nH]c2ccccc12)C(=O)NCCO)C(C)C)C(C)C [compound 2195] (For-VGA[dL]A[dV]V[dD](NHMe)W[dL]W[dV]W[dV]W-NHCH2CH2OH) is ____.
Out: 100

----------
# Test system: Streptococcus pyogenes SSI-9
# ASSAY SUMMARY: Antibacterial activity assay of bead-derived peptides (three concentrations)
# Assay type: cell-based
# Set-up: key: +++: inhibition by the 640-fold diluted peptide solution; ++: inhibition by the 160-fold diluted solution; +: inhibition by the 40-fold diluted solution; -: no inhibition
# CONDITION DESCRIPTION: S. pyogenes, bead-derived peptide solution, three concentrations
# Procedure: Each type of assay must be simplified and miniaturized to assess the activities of the library peptides in a 96-well format for the high-throughput screening. Next, the peptides in groups A and B were subjected to the antibacterial assay and structural determination. Three peptide concentrations were applied to evaluate the growth inhibition of S. pyogenes and determine the antibacterial activity. […] Finally, the structures of the peptides were determined. […]
Where a SMILES comes first, the peptide text is derived from it. [ ]: non-standard residue; d: D form. The star is where a group is joined. NHCH2CH2OH = OCCN*; For = O=C*
PROPERTY NAME: antibacterial activity

CNC(=O)C[C@@H](NC(=O)[C@H](C)NC(=O)[C@@H](CC(C)C)NC(=O)[C@H](C)NC(=O)CNC(=O)[C@@H](NC=O)C(C)C)C(=O)N[C@H](C(=O)N[C@@H](C(=O)N[C@@H](Cc1c[nH]c2ccccc12)C(=O)N[C@@H](C(=O)N[C@@H](Cc1c[nH]c2ccccc12)C(=O)N[C@H](CC(C)C)C(=O)N[C@@H](Cc1c[nH]c2ccccc12)C(=O)N[C@@H](C(=O)N[C@@H](Cc1c[nH]c2ccccc12)C(=O)NCCO)C(C)C)C(C)C)C(C)C)C(C)C [compound 8583] (For-VGA[dL]A[dD](NHMe)V[dV]W[dV]W[dL]W[dV]W-NHCH2CH2OH); -

----------
# Tested on: Streptococcus pyogenes SSI-9
# ASSAY SUMMARY: Antibacterial activity assay of bead-derived peptides (three concentrations)
# Type: cell-based
# Set-up: key: +++: inhibition by the 640-fold diluted peptide solution; ++: inhibition by the 160-fold diluted solution; +: inhibition by the 40-fold diluted solution; -: no inhibition
# CONDITION DESCRIPTION: S. pyogenes, bead-derived peptide solution, three concentrations
# Protocol: Each type of assay must be simplified and miniaturized to assess the activities of the library peptides in a 96-well format for the high-throughput screening. Next, the peptides in groups A and B were subjected to the antibacterial assay and structural determination. Three peptide concentrations were applied to evaluate the growth inhibition of S. pyogenes and determine the antibacterial activity. […] Finally, the structures of the peptides were determined. […]
Where a SMILES comes first, the peptide text is derived from it. [ ]: non-standard residue; d: D form. The star is where a group is joined. NHCH2CH2OH = OCCN*; For = O=C*
PROPERTY NAME: antibacterial activity

CNC(=O)C[C@@H](NC(=O)[C@H](Cc1c[nH]c2ccccc12)NC(=O)[C@H](NC(=O)[C@H](Cc1c[nH]c2ccccc12)NC(=O)[C@@H](CC(C)C)NC(=O)[C@H](Cc1c[nH]c2ccccc12)NC(=O)[C@@H](CC(C)C)NC(=O)[C@@H](NC(=O)[C@H](NC(=O)[C@H](C)NC(=O)[C@H](NC(=O)[C@H](C)NC(=O)CNC(=O)[C@@H](NC=O)C(C)C)C(C)C)C(C)C)C(C)C)C(C)C)C(=O)N[C@@H](Cc1c[nH]c2ccccc12)C(=O)NCCO [compound 3903] (For-VGA[dV]A[dV]V[dL]W[dL]W[dV]W[dD](NHMe)W-NHCH2CH2OH); -
CC(C)[C@H](NC=O)C(=O)NCC(=O)N[C@@H](C)C(=O)N[C@@H](C(=O)N[C@@H](C)C(=O)N[C@@H](C(=O)N[C@H](C(=O)N[C@@H](C(=O)N[C@@H](Cc1c[nH]c2ccccc12)C(=O)N[C@@H](C(=O)N[C@@H](Cc1c[nH]c2ccccc12)C(=O)N[C@@H](C(=O)N[C@@H](Cc1c[nH]c2ccccc12)C(=O)N[C@@H](C(=O)N[C@@H](Cc1c[nH]c2ccccc12)C(=O)NCCO)C(C)C)C(C)C)C(C)C)C(C)C)C(C)C)C(C)C)[C@H](C)O [compound 8545] (For-VGA[dT]A[dV]V[dV]W[dV]W[dV]W[dV]W-NHCH2CH2OH); -
CC(C)C[C@@H](NC(=O)[C@H](Cc1c[nH]c2ccccc12)NC(=O)[C@@H](CC(C)C)NC(=O)[C@@H](NC(=O)[C@H](NC(=O)[C@H](C)NC(=O)[C@H](NC(=O)[C@H](C)NC(=O)CNC(=O)[C@@H](NC=O)C(C)C)C(C)C)C(C)C)C(C)C)C(=O)N[C@@H](Cc1c[nH]c2ccccc12)C(=O)N[C@H](CC(C)C)C(=O)N[C@@H](Cc1c[nH]c2ccccc12)C(=O)N[C@@H](C(=O)N[C@@H](Cc1c[nH]c2ccccc12)C(=O)NCCO)C(C)C [compound 511] (For-VGA[dV]A[dV]V[dL]W[dL]W[dL]W[dV]W-NHCH2CH2OH); ++
CC(C)C[C@@H](NC(=O)[C@H](Cc1c[nH]c2ccccc12)NC(=O)[C@H](NC(=O)[C@H](Cc1c[nH]c2ccccc12)NC(=O)[C@@H](CC(C)C)NC(=O)[C@H](Cc1c[nH]c2ccccc12)NC(=O)[C@H](NC(=O)[C@@H](NC(=O)[C@H](NC(=O)[C@H](C)NC(=O)[C@H](NC(=O)[C@H](C)NC(=O)CNC(=O)[C@@H](NC=O)C(C)C)[C@H](C)O)C(C)C)C(C)C)C(C)C)C(C)C)C(=O)N[C@@H](Cc1c[nH]c2ccccc12)C(=O)NCCO [compound 3548] (For-VGA[dT]A[dV]V[dV]W[dL]W[dV]W[dL]W-NHCH2CH2OH); -
